Taken from ChEMBL document CHEMBL1909046.

tested_on: 5-hydroxytryptamine receptor 2C (Homo sapiens, UniProt P28335)
Sequence (P28335 whole entry): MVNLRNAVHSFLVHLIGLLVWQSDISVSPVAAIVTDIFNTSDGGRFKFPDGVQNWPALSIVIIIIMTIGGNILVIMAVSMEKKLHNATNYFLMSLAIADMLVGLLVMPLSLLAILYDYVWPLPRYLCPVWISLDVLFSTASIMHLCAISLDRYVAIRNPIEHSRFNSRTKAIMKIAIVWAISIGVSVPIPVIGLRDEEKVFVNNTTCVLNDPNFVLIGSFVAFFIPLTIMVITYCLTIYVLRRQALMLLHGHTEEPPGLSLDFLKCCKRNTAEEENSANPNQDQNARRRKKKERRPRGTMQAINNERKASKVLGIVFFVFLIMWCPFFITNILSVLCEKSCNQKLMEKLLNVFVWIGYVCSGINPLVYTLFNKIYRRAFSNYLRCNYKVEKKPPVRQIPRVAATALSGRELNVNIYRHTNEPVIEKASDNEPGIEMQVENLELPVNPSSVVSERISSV
protocol_summary: DRUGMATRIX: Serotonin (5-Hydroxytryptamine) 5-HT2C radioligand binding (ligand: [3H] Mesulergine)
Assay type: cell membranes, CHO-K1, Membrane
run_conditions: cho-k1; Not Active = under 50% inhibition at 10 µM
measured_endpoint: IC50

molecule="CN1C(=O)COc2c(C(=O)NC3CN4CCC3CC4)cc(Cl)cc21 (stereo not drawn)" measured_endpoint=IC50 result="Not Active"
molecule=N=C(Nc1ccccc1)Nc1ccccc1 measured_endpoint=IC50 result="Not Active"
molecule="O=C1CCC(N2C(=O)c3ccccc3C2=O)C(=O)N1 (stereo not drawn) [THALIDOMIDE]" measured_endpoint=IC50 result="Not Active"
molecule="COCCCOc1ccnc(C[S+]([O-])c2nc3ccccc3[nH]2)c1C (stereo not drawn)" measured_endpoint=IC50 result="Not Active"
molecule=COc1ccc2c(c1)c(CC(=O)O)c(C)n2C(=O)c1ccc(Cl)cc1 measured_endpoint=IC50 result="Not Active"
molecule="CC1=C(CC(=O)O)c2cc(F)ccc2/C1=C\\c1ccc([S+](C)[O-])cc1 (stereo not drawn)" measured_endpoint=IC50 result="Not Active"
molecule=CCC1=C[C@@H]2CN(C1)Cc1c([nH]c3ccccc13)[C@@](C(=O)OC)(c1cc3c(cc1OC)N(C)[C@H]1[C@@](O)(C(=O)OC)[C@H](OC(C)=O)[C@]4(CC)C=CCN5CC[C@]31[C@@H]54)C2 measured_endpoint=IC50 result="Not Active"
molecule="ClC(Cl)Cl [CHLOROFORM]" measured_endpoint=IC50 result="Not Active"
molecule=[H]/N=C(/N)N[C@H]1[C@H](O)[C@@H](O)[C@H](O[C@@H]2O[C@@H](C)[C@](O)(C=O)[C@H]2O[C@@H]2O[C@@H](CO)[C@H](O)[C@@H](O)[C@@H]2NC)[C@@H](N/C(N)=N\[H])[C@@H]1O measured_endpoint=IC50 result="Not Active"
molecule="COc1cccc2c1C(=O)c1c(O)c3c(c(O)c1C2=O)C[C@@](O)(C(=O)CO)C[C@@H]3O[C@H]1C[C@H](N)[C@@H](O)[C@H](C)O1 [EPIRUBICIN]" measured_endpoint=IC50 result="Not Active"
molecule=CNC(=C[N+](=O)[O-])NCCSCc1ccc(CN(C)C)o1 measured_endpoint=IC50 result="Not Active"
molecule=CO[C@H]1/C=C/O[C@@]2(C)Oc3c(C)c(O)c4c(c3C2=O)C2=NC3(CCN(CC(C)C)CC3)NC2=C(NC(=O)/C(C)=C\C=C\[C@H](C)[C@H](O)[C@@H](C)[C@@H](O)[C@@H](C)[C@H](OC(C)=O)[C@@H]1C)C4=O measured_endpoint=IC50 result="Not Active"
molecule=Cc1ncc([N+](=O)[O-])n1CCO measured_endpoint=IC50 result="Not Active"
molecule=CCc1c2c(nc3ccc(OC(=O)N4CCC(N5CCCCC5)CC4)cc13)-c1cc3c(c(=O)n1C2)COC(=O)[C@]3(O)CC measured_endpoint=IC50 result="Not Active"
molecule=C[C@H]1C[C@H]2[C@@H]3CCC4=CC(=O)C=C[C@]4(C)[C@@]3(Cl)[C@@H](O)C[C@]2(C)[C@@]1(O)C(=O)CO measured_endpoint=IC50 result="Not Active"
molecule=O=S(=O)([O-])CCS.[Na+] measured_endpoint=IC50 result="Not Active"
molecule=CC(=O)Nc1ccc(O)cc1 measured_endpoint=IC50 result="Not Active"
molecule=Cc1ccccc1C(=O)N1CCC(Cc2ccccc2)CC1 measured_endpoint=IC50 result="Not Active"
molecule=CC(C)(C(=O)c1cccnc1)c1cccnc1 measured_endpoint=IC50 result="Not Active"
molecule="C[C@]12CC[C@@H]3c4ccc(OC(=O)c5ccccc5)cc4CC[C@H]3[C@@H]1CC[C@@H]2O [ESTRADIOL BENZOATE]" measured_endpoint=IC50 result="Not Active"
molecule=CCCCOc1ccc(OCCCN2CCOCC2)cc1 measured_endpoint=IC50 result="Not Active"
molecule=Nc1ccn([C@@H]2CS[C@H](CO)O2)c(=O)n1 measured_endpoint=IC50 result="Not Active"
molecule=N[C@H](CSC(=S)NCc1ccccc1)C(=O)O measured_endpoint=IC50 result="Not Active"
molecule="CCCC(=O)Nc1ccc(OCC(O)CNC(C)C)c(C(C)=O)c1 (stereo not drawn)" measured_endpoint=IC50 result="Not Active"
molecule=C[C@@]12C(=O)OC(=O)[C@]1(C)[C@H]1CC[C@@H]2O1 measured_endpoint=IC50 result="Not Active"
molecule=CCCC(CCC)C(=O)O measured_endpoint=IC50 result="Not Active"
molecule=COc1cc2c(c(OC)c1OC)-c1ccc(OC)c(=O)cc1[C@@H](NC(C)=O)CC2 measured_endpoint=IC50 result="Not Active"
molecule=CN(C)c1ccc(C(=C2C=CC(=[N+](C)C)C=C2)c2ccc(N(C)C)cc2)cc1.[Cl-] measured_endpoint=IC50 result="Not Active"
molecule="CC(=O)OCC(=O)[C@@]1(O)CC[C@H]2[C@@H]3CCC4=CC(=O)CC[C@]4(C)[C@H]3C(=O)C[C@@]21C [CORTISONE ACETATE]" measured_endpoint=IC50 result="Not Active"
molecule="Cc1cccc(Nc2ccncc2S(=O)(=O)NC(=O)NC(C)C)c1 [TORSEMIDE]" measured_endpoint=IC50 result="Not Active"
molecule="Cc1nccn1CC1CCc2c(c3ccccc3n2C)C1=O (stereo not drawn)" measured_endpoint=IC50 result="Not Active"
molecule="C[C@](O)(CS(=O)(=O)c1ccc(F)cc1)C(=O)Nc1ccc(C#N)c(C(F)(F)F)c1 [(R)-BICALUTAMIDE]" measured_endpoint=IC50 result="Not Active"
molecule=COc1cc(NS(=O)(=O)c2ccc(N)cc2)nc(OC)n1 measured_endpoint=IC50 result="Not Active"
